# Test system: PC-3 prostate
# test-protocol: NCI-60 one-dose screen, 48 h (100 = growth as untreated, 0 = no growth, -100 = all killed)
# particulars: 10 µM unless noted
The panel holds about 83,000 compounds, 20% with a hit somewhere; the sample as a whole holds those more often. Activity calls are given as the source filed them. The calls were made as follows: active = growth percent below 10; inactive = the rest.
Kindly state growth for each of the entries shown.

Known results for compounds:
COc1ccc2cc(-c3ccc(C(=O)NN)c(C)n3)ccc2c1 : 93.3% (inactive)
C=C(CNCCc1ccc(O)cc1)[C@@H]1CC[C@]2(COC3CCCCO3)CC[C@]3(C)[C@H](CC[C@@H]4[C@@]5(C)CCC(N)C(C)(C)[C@@H]5CC[C@]43C)[C@@H]12 (stereo partly drawn) : -91% (active)
CS(=O)(=O)c1ccc(-c2[nH]c3ccc(F)cc3c2/C=N/O)cc1 : 79.4% (inactive)

Give growth for all compounds that follow.
1. CC(C)c1ccc(C(=O)OC(=O)c2ccc(C(C)C)cc2)cc1
2. Cc1c(C(=O)O[C@H]2[C@@H]3[C@H](C)CC[C@H]3[C@]3(C)O[C@@]2(C2CCCCC2)C[C@H]3OC(=O)CO)ccc2ccccc12
3. O=C(NCc1cn(Cc2cccc(Oc3ccccc3)c2)nn1)c1cccnc1NCc1ccc(Cl)cc1
4. CNC(=O)c1cc(Oc2ccc3nc(NC(=O)Nc4cc(C(F)(F)F)cc(C(F)(F)F)c4)sc3c2)ccn1
5. COc1cc(C2CC(c3ccc(Nc4nc(Nc5ccc(F)cc5)nc(Nc5ccc(Cl)cc5)n4)cc3)=NN2C(C)=O)cc(OC)c1OC (stereo not drawn)
6. CC(=O)C(C(C)=O)c1nc2sc3cc(Cl)ccc3n2c(=N)c1C#N
7. COc1ccc(/C(C)=C(\c2ccc(Cl)cc2)c2ccc(OCCN3CCCCCC3)cc2)cc1F

86.8% (inactive)
9.25% (active)
10% (inactive)
-38.9% (active)
32.6% (inactive)
65.2% (inactive)
41% (inactive)

###

Kindly state growth for each of the entries shown.
# Test system: U251 CNS
# test-protocol: NCI-60 one-dose screen, 48 h (100 = growth as untreated, 0 = no growth, -100 = all killed)
# particulars: 10 µM unless noted
About 83,000 compounds went through this panel and 20% of them were active in at least one assay; those are over-represented in the sample as a whole.
Numbers only, in %.

Known results for compounds:
O=c1[nH]nc(-c2ccc(Cl)cc2)cc1Cc1ccccc1 : 92.5
CC(C)(C)OC(=O)N1Cc2cc3ccccc3nc2C1CO (stereo not given) : 103
COc1ccc(-c2cc(-c3cc(OC)ccc3OC)[nH]c(=O)c2C#N)cc1 : 39.5
CS(=O)(=O)c1ccc(-c2[nH]c3ccc(F)cc3c2/C=N/NC(N)=S)cc1 : 15.5

Give growth for all compounds that follow.
1. COc1cccc(-c2cnco2)c1OCc1c(C)c(COc2c(OC)cccc2-c2cnco2)c(C)c(COc2c(OC)cccc2-c2cnco2)c1C
2. O=C1C2=C(CCN(Cc3ccccc3)C2)N2CCN=C2N1Cc1ccc(F)cc1F

[40, 21.3]

Give growth for all compounds that follow.
1. COc1ccc(-n2nnc(C(=O)NCCc3c[nH]c4ccc(F)cc34)c2C)cc1
2. COc1ccc(/C(C)=C(\c2ccc(Cl)cc2)c2ccc(OCCN(C)C)cc2)cc1F
3. CCc1cc(Cc2cc(CC)cc(C(C)(C)C)c2O)c(O)c(C(C)(C)C)c1
4. C/C(=N\NC(N)=S)c1nc2ccc(Cl)cc2[nH]1

[92.4, 46, 16.3, 49.9]

Cited source for all entries: PubChem BioAssay (NCI)
